Origin of measurements: paper PMC9190043

# Lookup of reported pEC50 of NECA in presence of compound keyed by entry
# tested.on: A2BR (Homo sapiens, UniProt P29275)
# Construct: expressed in transfected cells
# experiment.summary: cAMP accumulation assay with NECA, single-concentration Schild pKd
# Assay type: cell-based
# condition.label: A2BR (10 μM), no forskolin, mean ± SEM
measured.metric: pEC50 of NECA in presence of compound

> print(dat)
                                   compound  assay.value
1  Cn1nc(-c2ccccc2)c2cnnc(N3CCOCC3)c21 [Compound 10c]         7.23
2  Cn1nc2c(N3CCOCC3)nncc2c1-c1ccccc1 [Compound 15c]         7.24
3  CC(C)c1nn(C)c2c(NCc3ccccc3)nncc12 [Compound 10a]         7.01
4  CC(C)c1c2cnnc(NCc3ccccc3)c2nn1C [Compound 15a]         6.87

* * *

# experiment.summary: Cell viability MTT assay
# Type: cell-based
# condition.label: human, HCT116 colon cancer cells, read-out: IC50 (cytotoxicity)
measured.metric: IC50

> print(dat)
                                   compound  measured.metric  assay.value
1  Cn1nc(-c2ccccc2)c2cnnc(NCc3ccccc3)c21 [Compound 10b]             IC50      > 10 µM

* * *

# Lookup of reported Kd keyed by entry
# tested.on: A2BR (Homo sapiens)
# experiment.summary: cAMP accumulation assay with NECA, single-concentration Schild pKd
# condition.label: A2BR (10 μM), mean ± SEM; N.B. printed for non-binders
measured.metric: Kd (µM)

> print(dat)
                                   compound            tested.on  measured.metric  assay.value
1  CC(C)c1c2cnnc(NCc3ccccc3)c2nn1C [Compound 15a]  A2BR (Homo sapiens)               Kd         8.13
2  CC(C)c1nn(C)c2c(NCc3ccccc3)nncc12 [Compound 10a]  A2BR (Homo sapiens)               Kd         16.2

* * *

# tested.on: A2BR (Homo sapiens, UniProt P29275)
# Construct: expressed in transfected cells
# Sequence (P29275 1-332): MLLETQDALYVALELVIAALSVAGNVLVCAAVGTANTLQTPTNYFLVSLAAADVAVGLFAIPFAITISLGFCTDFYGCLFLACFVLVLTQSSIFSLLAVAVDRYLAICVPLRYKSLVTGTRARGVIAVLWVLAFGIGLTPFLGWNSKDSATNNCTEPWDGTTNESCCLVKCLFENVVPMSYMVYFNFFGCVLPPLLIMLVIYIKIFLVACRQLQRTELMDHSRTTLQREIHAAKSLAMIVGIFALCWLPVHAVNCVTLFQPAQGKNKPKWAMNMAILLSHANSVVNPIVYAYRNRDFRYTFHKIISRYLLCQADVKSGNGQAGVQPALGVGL
# experiment.summary: cAMP accumulation assay with NECA, single-concentration Schild pKd
# Format: cell-based
# condition.label: A2BR, activity only detectable at 10 μM
measured.metric: antagonist efficacy in cAMP assay

> print(dat)
                                   compound      assay.value
1  Cn1nc2c(N3CCOCC3)nncc2c1-c1ccccc1 [Compound 15c]  lacked efficacy
2  Cn1nc2c(NCc3ccccc3)nncc2c1-c1ccccc1 [Compound 15b]  lacked efficacy
3  Cn1nc(-c2ccccc2)c2cnnc(N3CCOCC3)c21 [Compound 10c]  lacked efficacy
